- Tested on: Hog renin
- ASSAY_REMARKS: hog renin inhibition assay
- Format: biochemical
- SETTINGS: synthetic tetradecapeptide substrate, pH 7.4, one hour at 37° C., angiotensin I by radioimmunoassay
OUTCOME_MEASURE: IC50

COMPOUND: CC(CNC(=O)[C@H](Cc1ccccc1)NC(=O)OC(C)(C)C)C(=O)N[C@@H](CC1CCCCC1)[C@@H](O)CO (some centres unmarked)
ASSAYED_SYSTEM: Hog renin
OUTCOME_MEASURE: IC50
REPORTED_VALUE: 2100 nM

COMPOUND: CC(C)C[C@H](O)[C@H](O)[C@H](CC1CCCCC1)NC(=O)C(C)CNC(=O)[C@H](Cc1ccccc1)NC(=O)OC(C)(C)C (some centres unmarked)
ASSAYED_SYSTEM: Hog renin
OUTCOME_MEASURE: IC50
REPORTED_VALUE: 12.5 nM

###

- ASSAYED_SYSTEM: Human renin (Homo sapiens, UniProt P00797)
- Sequence (P00797 67-406): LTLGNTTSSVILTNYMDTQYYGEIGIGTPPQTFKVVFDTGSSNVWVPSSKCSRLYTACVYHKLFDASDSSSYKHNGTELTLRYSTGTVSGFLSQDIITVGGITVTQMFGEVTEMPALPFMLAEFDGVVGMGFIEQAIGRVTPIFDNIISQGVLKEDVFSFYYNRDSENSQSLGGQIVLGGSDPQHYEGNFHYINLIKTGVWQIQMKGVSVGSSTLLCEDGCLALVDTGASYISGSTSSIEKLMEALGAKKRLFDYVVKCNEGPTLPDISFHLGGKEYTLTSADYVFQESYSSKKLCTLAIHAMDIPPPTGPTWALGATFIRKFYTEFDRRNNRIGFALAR
- ASSAY_REMARKS: human renin inhibition test
- SETTINGS: human plasma substrate, pH 7.4, two hours at 37° C., angiotensin I by radioimmunoassay
Listed next: entries and their corresponding IC50.
OUTCOME_MEASURE: IC50 (nM)

MOLECULE: CC(C)C[C@H](O)[C@H](O)[C@H](CC1CCCCC1)NC(=O)C(C)CNC(=O)[C@H](Cc1ccccc1)NC(=O)OC(C)(C)C (some centres unmarked)
OUTCOME_MEASURE: IC50
REPORTED_VALUE: 210
--
MOLECULE: CC(CNC(=O)[C@H](Cc1ccccc1)NC(=O)OC(C)(C)C)C(=O)N[C@@H](CC1CCCCC1)[C@@H](O)CO (some centres unmarked)
OUTCOME_MEASURE: IC50
REPORTED_VALUE: 2000

Just for reference, patent US4931429A is where these values come from.
